The following molecules are listed with their measured MIC values.
Tested on: Staphylococcus aureus
PROTOCOL_TEXT: Antibacterial activity against Staphylococcus aureus isolate
Type: functional
The reply should be a number in µg/mL, with the unit left off.

SUBSTANCE_SMILES: C1#CCOc2ccc(CNc3ccccc3)c(c2)OCC#C/C=C\1
MIC, µg/mL: 8
//
SUBSTANCE_SMILES: Cc1ccc(NCc2ccc3cc2OCC#C/C=C\C#CCO3)cc1
MIC, µg/mL: 16
//
SUBSTANCE_SMILES: C1#CCOc2ccc(/C=N/c3ccccc3)c(c2)OCC#C/C=C\1
MIC, µg/mL: 128

q: Query: MIC; subject: "CN(C)[C@@H]1C(O)=C(C(N)=O)C(=O)[C@@]2(O)C(O)=C3C(=O)c4c(O)cccc4[C@@](C)(O)[C@H]3C[C@@H]12"
a: 2

q: Input "OCc1ccc2cc1OCC#C/C=C\C#CCO2"
a: 4

q: Another molecule to check: "O=Cc1ccc2cc1OCC#C/C=C\C#CCO2"
a: 8
